Origin of measurements: patent US20190127480A1

Molecular target: T1, Soluble heterodimeric CD3 protein (hCD3-epsilon/hCD3-delta) with either a human Fc tag (hFcΔAdp/hFc) or a … (human, UniProt P07766 23-126; P04234 22-105)
T1 construct: also called hCD3ε/δ; not shown: Fc tag: human (hFcΔAdp/hFc)
T1 sequence (P07766 23-126 limits assumed, stated change not applied, chain 1 of 2): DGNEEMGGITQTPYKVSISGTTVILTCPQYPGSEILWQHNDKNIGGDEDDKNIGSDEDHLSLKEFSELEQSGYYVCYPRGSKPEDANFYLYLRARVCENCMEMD
T1 sequence (P04234 22-105 limits assumed, stated change not applied, chain 2 of 2): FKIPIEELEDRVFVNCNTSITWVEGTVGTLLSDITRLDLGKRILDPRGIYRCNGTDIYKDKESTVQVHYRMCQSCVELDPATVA
Experiment: SPR Biacore 25C antigen-capture

binder	units_label	Kd
H1M2692N (antibody, mouse IgG1, V domains shown, H1M: mouse IgG1 Fc, human variable regions; divalent) VH: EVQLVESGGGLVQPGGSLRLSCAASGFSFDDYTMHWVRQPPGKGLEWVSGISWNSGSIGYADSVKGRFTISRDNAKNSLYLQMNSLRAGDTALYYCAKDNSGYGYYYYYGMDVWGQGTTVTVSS VL: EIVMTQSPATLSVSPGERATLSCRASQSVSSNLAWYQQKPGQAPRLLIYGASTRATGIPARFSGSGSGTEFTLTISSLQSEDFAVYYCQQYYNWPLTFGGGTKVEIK	nM	0.238
H1H5790B (antibody, human IgG1, V domains shown, H1H: human IgG1 Fc; divalent) VH: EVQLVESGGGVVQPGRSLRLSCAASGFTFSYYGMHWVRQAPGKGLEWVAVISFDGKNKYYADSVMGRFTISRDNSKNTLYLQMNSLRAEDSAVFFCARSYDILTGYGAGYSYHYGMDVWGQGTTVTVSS VL: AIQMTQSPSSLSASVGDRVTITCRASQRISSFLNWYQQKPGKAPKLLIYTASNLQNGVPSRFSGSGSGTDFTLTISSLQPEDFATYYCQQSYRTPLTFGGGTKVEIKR	nM	0.254
H2M3543N (antibody, mouse IgG2, V domains shown, H2M: mouse IgG2 Fc, human variable regions; divalent) VH: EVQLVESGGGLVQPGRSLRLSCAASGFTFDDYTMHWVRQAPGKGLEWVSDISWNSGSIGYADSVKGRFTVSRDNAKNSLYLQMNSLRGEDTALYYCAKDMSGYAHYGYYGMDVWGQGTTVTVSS VL: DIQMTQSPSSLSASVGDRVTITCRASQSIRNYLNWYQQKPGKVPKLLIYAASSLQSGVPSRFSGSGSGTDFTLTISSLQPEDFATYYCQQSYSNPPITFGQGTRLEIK	nM	0.653
H1M2712N (antibody, mouse IgG1, V domains shown, H1M: mouse IgG1 Fc; divalent) VH: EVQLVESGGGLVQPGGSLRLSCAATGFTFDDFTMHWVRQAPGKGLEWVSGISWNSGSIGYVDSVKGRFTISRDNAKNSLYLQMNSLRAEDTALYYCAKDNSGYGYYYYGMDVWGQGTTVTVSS VL: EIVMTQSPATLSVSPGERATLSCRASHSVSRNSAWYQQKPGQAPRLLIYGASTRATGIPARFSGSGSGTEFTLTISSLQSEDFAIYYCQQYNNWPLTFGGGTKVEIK	nM	0.295
H1H5801B (antibody, human IgG1, V domains shown, H1H: human IgG1 Fc; divalent) VH: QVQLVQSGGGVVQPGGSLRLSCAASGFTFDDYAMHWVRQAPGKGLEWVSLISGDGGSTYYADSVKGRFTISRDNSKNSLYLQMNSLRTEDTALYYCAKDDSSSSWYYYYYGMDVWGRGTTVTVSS VL: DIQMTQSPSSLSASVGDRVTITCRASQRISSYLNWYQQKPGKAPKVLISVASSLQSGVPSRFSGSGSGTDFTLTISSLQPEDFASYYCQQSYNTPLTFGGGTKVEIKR	nM	3.38
H2M2691N (antibody, mouse IgG2, V domains shown, H2M: mouse IgG2 Fc, human variable regions; divalent) VH: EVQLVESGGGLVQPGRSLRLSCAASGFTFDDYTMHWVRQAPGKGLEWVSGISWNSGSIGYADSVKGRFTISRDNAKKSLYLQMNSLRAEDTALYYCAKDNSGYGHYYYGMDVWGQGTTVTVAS VL: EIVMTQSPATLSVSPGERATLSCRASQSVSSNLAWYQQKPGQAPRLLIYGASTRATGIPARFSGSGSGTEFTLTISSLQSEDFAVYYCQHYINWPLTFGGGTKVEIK	nM	0.254
H1H5780P (antibody, human IgG1, V domains shown, H1H: human IgG1 Fc; divalent) VH: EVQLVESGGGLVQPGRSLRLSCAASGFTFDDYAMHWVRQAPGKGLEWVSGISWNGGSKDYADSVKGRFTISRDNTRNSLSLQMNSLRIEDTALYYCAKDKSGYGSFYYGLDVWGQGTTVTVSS VL: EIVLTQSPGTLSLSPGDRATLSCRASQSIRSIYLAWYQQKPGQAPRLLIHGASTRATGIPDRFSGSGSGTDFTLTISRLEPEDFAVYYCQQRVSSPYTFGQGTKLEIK	nM	0.358
H1H5778P (antibody, human IgG1, V domains shown, H1H: human IgG1 Fc; divalent) VH: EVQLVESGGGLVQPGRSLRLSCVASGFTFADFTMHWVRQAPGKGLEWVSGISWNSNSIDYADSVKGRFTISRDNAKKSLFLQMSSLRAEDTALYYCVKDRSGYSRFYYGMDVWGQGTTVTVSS VL: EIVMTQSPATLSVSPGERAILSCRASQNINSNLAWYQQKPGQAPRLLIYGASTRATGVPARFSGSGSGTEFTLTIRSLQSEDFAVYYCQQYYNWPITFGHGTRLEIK	nM	0.0856
H1H5772S (antibody, V domains shown, H1H: human IgG1 Fc; divalent; also called H1H5772P) VH: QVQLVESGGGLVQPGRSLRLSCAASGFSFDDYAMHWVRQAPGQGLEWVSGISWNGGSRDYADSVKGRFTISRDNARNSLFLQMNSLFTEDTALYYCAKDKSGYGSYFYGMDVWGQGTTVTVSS VL: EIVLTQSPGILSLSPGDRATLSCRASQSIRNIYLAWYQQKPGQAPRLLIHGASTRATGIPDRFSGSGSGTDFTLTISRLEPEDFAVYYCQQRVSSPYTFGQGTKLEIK	nM	1.67
H1H5757B (antibody, human IgG1, V domains shown, H1H: human IgG1 Fc; divalent) VH: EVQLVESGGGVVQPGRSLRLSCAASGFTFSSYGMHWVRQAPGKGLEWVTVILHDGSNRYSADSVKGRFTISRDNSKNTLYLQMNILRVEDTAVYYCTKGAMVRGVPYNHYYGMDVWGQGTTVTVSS VL: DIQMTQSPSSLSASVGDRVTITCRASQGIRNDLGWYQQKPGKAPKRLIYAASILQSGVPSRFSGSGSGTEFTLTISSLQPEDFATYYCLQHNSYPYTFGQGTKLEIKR	nM	1.64
H1H5781P (antibody, human IgG1, V domains shown, H1H: human IgG1 Fc; divalent) VH: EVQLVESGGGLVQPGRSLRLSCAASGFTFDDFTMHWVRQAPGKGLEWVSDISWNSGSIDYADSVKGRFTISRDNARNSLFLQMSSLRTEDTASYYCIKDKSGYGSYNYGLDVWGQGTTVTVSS VL: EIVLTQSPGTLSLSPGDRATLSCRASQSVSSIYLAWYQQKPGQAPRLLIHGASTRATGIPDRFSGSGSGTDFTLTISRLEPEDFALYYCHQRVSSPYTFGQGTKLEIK	nM	1.92
